Tested on: Aspergillus terreus
Experiment: Antimicrobial activity against Aspergillus terreus MTCC 1782 at 750 ug/ml after 72 hrs by cup plate method
Type: functional
Settings: MTCC 1782, 72 h, read-out: IZ
# maps each entry to its zone of inhibition at 750 µg/mL

compound	zone of inhibition at 750 µg/mL
Cc1ccc2[nH]c(-c3ccccc3)c(C3C=C(c4ccccc4)Oc4[nH]c(=O)nc(N)c43)c2c1 (centres undefined)	8 mm
N#Cc1c(N)c2c(N)c3c(nc2oc1=O)OC(c1ccccc1)=CC3c1c(-c2ccccc2)[nH]c2ccc(Cl)cc12 (centres undefined)	3 mm
Cc1ccc2[nH]c(-c3ccccc3)c(C3C=C(c4ccccc4)OC(N)=C3C#N)c2c1 (centres undefined)	5 mm
Nc1n[nH]c2c1C(c1c(-c3ccccc3)[nH]c3ccc(Cl)cc13)C=C(c1ccccc1)O2 (centres undefined)	3 mm
